B1: tRNA (parent)
chain: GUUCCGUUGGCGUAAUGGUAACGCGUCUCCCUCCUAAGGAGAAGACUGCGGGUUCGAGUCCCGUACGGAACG

- Variants of: B1
- ASSAY_DETAILS: yeast fitness relative to wild type (ratio to wild type); higher = fitter; tRNA-Arg(CCU), competitive growth, 37 C, YPD
This sample holds only a part of the variants without activity.
Entries and their yeast fitness

>  <RESIDUES>
GUUACGUUGGCGUAAUGGGAACGCGUCUCCCUCCUAAGGAGAAGACUGCGGGUUCGAGUCCCGUACGGACCG [C4A U19G A70C]

>  <MODIFIER>
=

>  <yeast fitness>
0.854

$$$$
>  <RESIDUES>
GUUCCGUUGGCGUUAUGGUAACGCGUCUCCCUCCUAAGGAGAAGACAGCGGGUUCGAGUCCCGUACGGGACG [A14U U47A A69G]

>  <MODIFIER>
=

>  <yeast fitness>
0.66

$$$$
>  <RESIDUES>
GUUCCGUUGGCGUAAUGGUAACGCGUCUCCCUCCUAAGGAGAAGACUGCGGGUUCGAGUUCGGUACGGAGCG [C60U C62G A70G]

>  <MODIFIER>
=

>  <yeast fitness>
0.521

$$$$
>  <RESIDUES>
GUUCCGUCGGCGUAAUGGUAACGCGUCUACCUCCUAAGGAGAAGACUGCGGGUACGAGUCCCGUACGGAACG [U8C C29A U54A]

>  <MODIFIER>
≤

>  <yeast fitness>
0.5

$$$$
>  <RESIDUES>
GUUCCGAUCGCGUAAUCGUAACGCGUCUGCCUGCUAAGGACAAGACUGCGGGUUCGAGUCCCGUAUGGAACG [U7A G9C G17C C29G C33G G41C C66U]

>  <MODIFIER>
≤

>  <yeast fitness>
0.5

$$$$
>  <RESIDUES>
GUUCCGUUGGCGUAAUGGUAACGCGUCUCCCUCCUAGGGAGAAGACUGCGGGUUCGACUCCCGUACGGCACG [A37G G58C A69C]

>  <MODIFIER>
=

>  <yeast fitness>
0.623

$$$$
>  <RESIDUES>
GUUCCGUUGGCGUAAUGGUAACGCGUCUCCCGCCUAAGGAGAAGACUGCGGGUUCGAGUCCCCUACGGAACG [U32G G63C]

>  <MODIFIER>
=

>  <yeast fitness>
0.571

$$$$
>  <RESIDUES>
GUUCCGUUGGCGUAAAGGUAACGAGUCUCCCUCCUAAGGAGAGGACUGCGGGUUCGAGUCCCGUACGGAACG [U16A C24A A43G]

>  <MODIFIER>
≤

>  <yeast fitness>
0.5

$$$$
>  <RESIDUES>
GUUCCGUUGGCAUAAUGGUAACGCGUGUCCCUCUUAAGGAGACGACUGCGGGUUCGUAUCCGGUACGGAACG [G12A C27G C34U A43C A57U G58A C62G]

>  <MODIFIER>
≤

>  <yeast fitness>
0.5

$$$$
>  <RESIDUES>
GUUCCGUUGGCGUAAUAGUAAGGCGUAUCCCUCCUAAGGAGAAGACUGCGGGUUCGAGUCCCAUACGGAACG [G17A C22G C27A G63A]

>  <MODIFIER>
=

>  <yeast fitness>
0.538

$$$$
>  <RESIDUES>
GUUCCGUUGGCGUAAUGGUCACGCAUCUCCGUUUUAAGGACAAGACUGCGGGUUCGAGUACCGUAUGGAACG [A20C G25A C31G C33U C34U G41C C60A C66U]

>  <MODIFIER>
≤

>  <yeast fitness>
0.5

$$$$
>  <RESIDUES>
GUUCCAUUGGCGUAAUGGUAACGCGUCUGCCUCCUAACGGGAAGCCUGCGGGUUCGAGUCCCGUACGGAACG [G6A C29G G38C A40G A45C]

>  <MODIFIER>
≤

>  <yeast fitness>
0.5

$$$$
>  <RESIDUES>
GUUCCGUUGGCGUACUGGUAACGCGUCUCCCUCCUAAGGAGAAGACUGCGGGUUAGAGUCCCGUACGGAACG [A15C C55A]

>  <MODIFIER>
=

>  <yeast fitness>
0.562

$$$$
>  <RESIDUES>
GUUCCGUUGGCGACAUGGUACCGCAUCUCCCUCCUAAGGAGAAGACUGCGGGUUCGAGUCACGUACGGAACG [U13A A14C A21C G25A C61A]

>  <MODIFIER>
≤

>  <yeast fitness>
0.5

$$$$
>  <RESIDUES>
GGUCCGUUGGCGUAAUGAUAACGCGUAUCUCUCCUAAGGAGAAGACUGCGGGUUCGAGUCCCGUUCGGAACG [U2G G18A C27A C30U A65U]

>  <MODIFIER>
≤

>  <yeast fitness>
0.5

$$$$
>  <RESIDUES>
GUUCCGUUGGCGUAAUGGUCACGCGUCUCCCUCCUAAGGAGAAGACUGCGGGUUCGAGUCCCGUACUGAACG [A20C G67U]

>  <MODIFIER>
=

>  <yeast fitness>
0.754

$$$$
>  <RESIDUES>
GUUCCGUUGGCGUAAUGGUAACGCGUCUCCCUCCCAAGGAGAAGUCUGAGGGUUCGAGUCCCGUAUGGAACG [U35C A45U C49A C66U]

>  <MODIFIER>
≤

>  <yeast fitness>
0.5

$$$$
>  <RESIDUES>
GUUCCGUUGGCGUAAUGGUAACGCGUCUCCCUCCUAAGGAGAAGACUGCGGGUUCGAGUCCUGCACGGAACG [C62U U64C]

>  <MODIFIER>
=

>  <yeast fitness>
1.02

$$$$
>  <RESIDUES>
GUUCCGUUGGCGUAAUGGUAACGCGUCUCCCUCCUAAGGAGAAGACCGCGGGUUCGAGUCGCGUCCGGAACG [U47C C61G A65C]

>  <MODIFIER>
≤

>  <yeast fitness>
0.5

$$$$
>  <RESIDUES>
GUUCCGUUGGCGUAAUGGUGACGCGUCUCCCUCCUAAGGAGAAGACUGCCGGUUCGAGUCCCCUACCGAACG [A20G G50C G63C G67C]

>  <MODIFIER>
≤

>  <yeast fitness>
0.5

$$$$
>  <RESIDUES>
GUUCCGUUGGCGUACUGGUAACGCGUCUCCCUCCUAAGGAGAAGACGGCGGCUUCGAGUCCCGUACGGAACG [A15C U47G G52C]

>  <MODIFIER>
≤

>  <yeast fitness>
0.5

$$$$
>  <RESIDUES>
GUUCCGUUGGGGUAAUGGUAACGGGUCUCUCUCCUAAGGAGAUGACUGCGGGUUCGAGUGCCGUCCGGAACG [C11G C24G C30U A43U C60G A65C]

>  <MODIFIER>
≤

>  <yeast fitness>
0.5

$$$$

Cited source: the RNAGym collection of RNA variant scans (doi:10.1126/science.aae0568)
